Each entry below lists one item and its recorded Nuclear localization (% of total cells) value.
- Tested on: YAP/TAZ
- experimental_details: YAP/TAZ nuclear localization in IPF patient-derived lung fibroblasts treated with dopaminergic agonists
- Assay type: cell-based, human
- test_settings: IPF-4 patient fibroblasts; 10 μM, 2 hours
Structures can show the parent of a compound that is named as a salt.

molecule: NCCc1ccc(O)cc1 [4-Hydroxyphenethylamine•HCl, 4-Hydroxyphenethylamine]
result: 43.3719 % of total cells

Please turn your attention to the following entry.
Lookup: Given the molecule NC[C@@H]1O[C@H](C23CC4CC(CC(C4)C2)C3)Cc2c1ccc(O)c2O [A-77636•HCl•H2O, A-77636] , what is its reported Nuclear localization (% of total cells)?
Found: 37.79 % of total cells

----------
- Test system: YAP/TAZ
- experimental_details: YAP/TAZ nuclear localization in IPF patient-derived lung fibroblasts treated with dopaminergic agonists
- Type: cell-based, human
- test_settings: IPF-4 patient fibroblasts; 10 μM, 2 hours
Structures can show the parent of a compound that is named as a salt.
readout: Nuclear localization (% of total cells)

molecule: Br.NC1CCc2cc(O)c(O)cc2C1 (centres unmarked)
study_system: YAP/TAZ
Nuclear localization (% of total cells): 52.65 % of total cells

Lookup: Given the molecule NCCc1ccc(O)c(O)c1 [Dopamine•HCl, Dopamine] , what is its reported Nuclear localization (% of total cells)?
Found: 49.51 % of total cells

Lookup: Entry to check: `C=CCN1C[C@H](C(=O)N(CCCN(C)C)C(=O)NCC)C[C@@H]2c3cccc4[nH]cc(c34)C[C@H]21`
Found: 68.69 % of total cells

Lookup: Entry to check: Oc1ccc(C2CNCCc3c2cc(O)c(O)c3Cl)cc1 (centres unmarked) [Fenoldopam•HCl, Fenoldopam]
Found: 63 % of total cells

Lookup: Entry to check: c1cnc(N2CCN(Cc3ccc4c(c3)OCO4)CC2)nc1 [Piribedil•2HCl, Piribedil]
Found: 59.64 % of total cells

----------
- System: YAP/TAZ
- experimental_details: YAP/TAZ nuclear localization in IPF patient-derived lung fibroblasts treated with dopaminergic agonists
- Assay type: cell-based, human
- test_settings: IPF-2 patient fibroblasts; 10 μM, 2 hours
Counter-ions that a name gives are not always drawn.
readout: Nuclear localization (% of total cells)

Example entries and their recorded answers appear below.
compound: COc1ccc2c(c1O)-c1cc(O)cc3c1[C@@H](C2)N(C)CC3.Cl
result: 74.67 % of total cells
--
compound: c1cnc(N2CCN(Cc3ccc4c(c3)OCO4)CC2)nc1 [Piribedil•2HCl, Piribedil]
result: 85.76 % of total cells

Please turn your attention to the following entry.
Lookup: Given the compound NCCc1ccc(O)c(O)c1 [Dopamine•HCl, Dopamine] , what is its reported Nuclear localization (% of total cells)?
Found: 59.29 % of total cells

----------
Each entry below lists one item and its recorded Nuclear localization (% of total cells) value.
- System: YAP/TAZ
- experimental_details: YAP/TAZ nuclear localization in IPF patient-derived lung fibroblasts treated with dopaminergic agonists
- Assay type: cell-based, human
- test_settings: IPF-2 patient fibroblasts; 10 μM, 2 hours
Structures can show the parent of a compound that is named as a salt.

Example entries and their recorded answers appear below.
compound: NCCc1ccc(O)cc1 [4-Hydroxyphenethylamine•HCl, 4-Hydroxyphenethylamine]
Nuclear localization (% of total cells): 45.69 % of total cells
//
compound: Oc1ccc(C2CNCCc3c2cc(O)c(O)c3Cl)cc1 (centres unmarked) [Fenoldopam•HCl, Fenoldopam]
Nuclear localization (% of total cells): 50.32 % of total cells
//
compound: Cc1cccc(C(=O)NCN2CCN(c3ccccc3C#N)CC2)c1.O=C(O)/C=C\C(=O)O [PD 168077 maleate, PD 168077]
Nuclear localization (% of total cells): 42.44 % of total cells
//
compound: C=CCN1CCc2nc(N)sc2CC1.Cl.Cl [B-HT 920•2HCl, B-HT 920]
Nuclear localization (% of total cells): 46.9 % of total cells
//
compound: Br.NC1CCc2cc(O)c(O)cc2C1 (centres unmarked) [6,7-ADTN•HBr, 6,7-ADTN]
Nuclear localization (% of total cells): 44 % of total cells

Lookup: Given the compound Br.C=CCN1CCc2c(cc(O)c(O)c2Br)[C@@H](c2ccccc2)C1 [R(+)-6-BROMO-APB•HBr, R(+)-6-BROMO-APB] , what is its reported Nuclear localization (% of total cells)?
Found: 38 % of total cells

Lookup: Entry to check: CCCN[C@H]1CCc2nc(N)sc2C1 [Pramipexole Dihydrochloride Monohydrate, Pramipexole]
Found: 47.65 % of total cells

Lookup: Entry to check: CN1CCc2cccc3c2[C@H]1Cc1ccc(O)c(O)c1-3 [(R)-(−)-Apomorphine•HCl, (R)-(−)-Apomorphine]
Found: 31.97 % of total cells

Lookup: Entry to check: Oc1cc2c(cc1O)[C@H]1c3ccccc3CN[C@@H]1CC2 (racemic) [Dihydrexidine]
Found: 21.79 % of total cells

Lookup: Entry to check: Oc1cc2c(cc1O)[C@@H](c1ccccc1)CNCC2 [SKF 38393•HBr, SKF 38393]
Found: 47.375 % of total cells

----------
Each entry below lists one item and its recorded Nuclear localization (% of total cells) value.
- System: YAP/TAZ
- experimental_details: YAP/TAZ nuclear localization in IPF patient-derived lung fibroblasts treated with dopaminergic agonists
- Type: cell-based, human
- test_settings: IPF-1 patient fibroblasts; 10 μM, 2 hours
Where a name gives a salt, the structure may show the parent alone.

Example entries and their recorded answers appear below.
compound: Cc1cccc(C(=O)NCN2CCN(c3ccccc3C#N)CC2)c1.O=C(O)/C=C\C(=O)O [PD 168077 maleate, PD 168077]
result: 67.08 % of total cells
//
compound: CCCN1C[C@H](CSC)C[C@@H]2c3cccc4[nH]cc(c34)C[C@H]21 [Pergolide mesylate, Pergolide]
result: 82.49 % of total cells
//
compound: CN1C[C@@H](NS(=O)(=O)N(C)C)C[C@@H]2c3cccc4c3c(cn4C)C[C@H]21 [Mesulergine•HCl, Mesulergine]
result: 37.81 % of total cells
//
compound: CCCN1CCC[C@@H]2Cc3nc(N)ncc3C[C@H]21.Cl.Cl [LY-163,502•2HCl, LY-163,502]
result: 73.37 % of total cells
//
compound: CN1Cc2ccccc2[C@@H]2c3cccc4[nH]cc(c34)C[C@H]21
result: 20.52 % of total cells
//
compound: CCCN(CCc1ccccc1)C1CCc2c(O)cccc2C1.Cl (racemic)
result: 68.85 % of total cells

Lookup: // map CN1CCc2cccc3c2[C@H]1Cc1ccc(O)c(O)c1-3 [(R)-(−)-Apomorphine•HCl, (R)-(−)-Apomorphine] to recorded Nuclear localization (% of total cells) (system: YAP/TAZ)
Found: 29.21 % of total cells

Lookup: Entry to check: `C=CCN1C[C@H](C(=O)N(CCCN(C)C)C(=O)NCC)C[C@@H]2c3cccc4[nH]cc(c34)C[C@H]21`
Found: 57.02 % of total cells

Lookup: Entry to check: CC(C)C[C@H]1C(=O)N2CCC[C@H]2[C@]2(O)O[C@](NC(=O)[C@@H]3C=C4c5cccc6[nH]c(Br)c(c56)C[C@H]4N(C)C3)(C(C)C)C(=O)N12 [Bromocriptine mesylate, Bromocriptine]
Found: 73.03 % of total cells

Lookup: Entry to check: CCCN(CCC)CCc1cccc2c1CC(=O)N2 [Ropinirole HCl, Ropinirole]
Found: 69.6036 % of total cells

Lookup: Entry to check: Oc1ccc(C2CNCCc3c2cc(O)c(O)c3Cl)cc1 (centres unmarked) [Fenoldopam•HCl, Fenoldopam]
Found: 68.1 % of total cells

Lookup: Entry to check: Cl.NC[C@@H]1O[C@H](c2ccccc2)Cc2c1ccc(O)c2O [A 68930•HCl, A 68930]
Found: 33.13 % of total cells

Lookup: Entry to check: `COc1ccc2c(c1O)-c1cc(O)cc3c1[C@@H](C2)N(C)CC3.Cl`
Found: 85.18 % of total cells

Lookup: Entry to check: NCCc1ccc(O)c(O)c1 [Dopamine•HCl, Dopamine]
Found: 39.85 % of total cells

Lookup: Entry to check: Br.C=CCN1CCc2c(cc(O)c(O)c2Br)[C@@H](c2ccccc2)C1 [R(+)-6-BROMO-APB•HBr, R(+)-6-BROMO-APB]
Found: 28.37 % of total cells

Lookup: Entry to check: C=CCN1CCc2nc(N)sc2CC1.Cl.Cl [B-HT 920•2HCl, B-HT 920]
Found: 75.68 % of total cells

Lookup: Entry to check: CCCN[C@H]1CCc2nc(N)sc2C1 [Pramipexole Dihydrochloride Monohydrate, Pramipexole]
Found: 64.92 % of total cells

Lookup: Entry to check: Br.C=CCN1CCc2c(cc(O)c(O)c2Cl)C(c2ccccc2)C1 (racemic) [(±)-SKF-82958•HBr, (±)-SKF-82958]
Found: 29.15 % of total cells

Lookup: Entry to check: c1cnc(N2CCN(Cc3ccc4c(c3)OCO4)CC2)nc1 [Piribedil•2HCl, Piribedil]
Found: 61.58 % of total cells

Lookup: Entry to check: NCCc1ccc(O)cc1 [4-Hydroxyphenethylamine•HCl, 4-Hydroxyphenethylamine]
Found: 56.52 % of total cells

meta.source: patent US12264163B2
